condition-details: human, plasma, oral, 20 mg, Half-life, CYP3A5 nonexpressors (n=13); atorvastatin only; harmonic mean ± SD
assay-readout: half-life (h)
Answer in h, number only, no unit symbol.

input: Given the compound CC(C)c1c(C(=O)Nc2ccccc2)c(-c2ccccc2)c(-c2ccc(F)cc2)n1CC[C@@H]1C[C@@H](O)CC(=O)O1 [atorvastatin lactone] , what is its reported half-life?
output: 13.6

----------
condition-details: human, plasma, oral, 20 mg, AUC0–∞, CYP3A5 nonexpressors (n=13); atorvastatin only; median (IQR)
assay-readout: AUC(0-inf) (µg·h/mL)
The response must be a number in µg·h/mL with no trailing unit.

input: Can you share its AUC(0-inf)? I mean this molecule: CC(C)c1c(C(=O)Nc2ccccc2)c(-c2ccccc2)c(-c2ccc(F)cc2)n1CC[C@@H]1C[C@@H](O)CC(=O)O1
output: 0.0476

----------
condition-details: human, plasma, oral, AUC0–∞, CYP3A5 nonexpressors (n=13); atorvastatin + clarithromycin; median (IQR)
assay-readout: AUC(0-inf) (ng·h/mL)
Answer with a number only, understood to be in ng·h/mL.

input: Request the reported AUC(0-inf) associated with CC(C)c1c(C(=O)Nc2ccccc2)c(-c2ccccc2)c(-c2ccc(F)cc2)n1CC[C@@H]1C[C@@H](O)CC(=O)O1 [atorvastatin lactone]
output: 127

----------
condition-details: human, plasma, oral, Tmax, CYP3A5 expressors (n=10); atorvastatin + clarithromycin; median (IQR)
assay-readout: Tmax
Entry format: amount then unit.

input: Name the recorded Tmax for CC(C)c1c(C(=O)Nc2ccccc2)c(-c2ccccc2)c(-c2ccc(F)cc2)n1CC[C@@H]1C[C@@H](O)CC(=O)O1 .
output: 5 h

----------
condition-details: human, plasma, oral, 20 mg, Half-life, CYP3A5 expressors (n=10); atorvastatin only; harmonic mean ± SD
assay-readout: half-life (h)
Dear colleague, please return just the value in h, with no unit written.

input: What value of half-life has been reported for the following molecule? CC(C)c1c(C(=O)Nc2ccccc2)c(-c2ccccc2)c(-c2ccc(F)cc2)n1CC[C@@H]1C[C@@H](O)CC(=O)O1
output: 10.9

----------
condition-details: human, plasma, oral, Half-life, CYP3A5 nonexpressors (n=13); atorvastatin + clarithromycin; harmonic mean ± SD
assay-readout: half-life (h)
Please state the figure in h; there is no need to write the unit.

input: Suppose we examine the compound CC(C)c1c(C(=O)Nc2ccccc2)c(-c2ccccc2)c(-c2ccc(F)cc2)n1CC[C@@H]1C[C@@H](O)CC(=O)O1 ; what half-life value has been reported?
output: 19.2

----------
condition-details: human, plasma, oral, 20 mg, Tmax, CYP3A5 expressors (n=10); atorvastatin only; median (IQR)
assay-readout: Tmax (h)
# number only, unit h dropped from output

input: Any idea what its Tmax is? The compound is CC(C)c1c(C(=O)Nc2ccccc2)c(-c2ccccc2)c(-c2ccc(F)cc2)n1CC[C@@H]1C[C@@H](O)CC(=O)O1 [atorvastatin lactone]
output: 2

----------
condition-details: human, plasma, oral, 20 mg, Tmax, CYP3A5 nonexpressors (n=13); atorvastatin only; median (IQR)
assay-readout: Tmax

input: What value of Tmax has been reported for the following compound? CC(C)c1c(C(=O)Nc2ccccc2)c(-c2ccccc2)c(-c2ccc(F)cc2)n1CC[C@@H]1C[C@@H](O)CC(=O)O1
output: 1 h

----------
assay-info: Plasma clarithromycin partial AUC in the atorvastatin plus clarithromycin phase
Assay type: in vivo
condition-details: human, oral, 500 mg, Partial AUC of clarithromycin (hrs 2–10), CYP3A5 expressors, clarithromycin 500 mg twice/day, day 4, mean ± SD
assay-readout: AUC (µg·h/mL)
Express the result in µg·h/mL but write the number alone.

input: Given CC[C@H]1OC(=O)[C@H](C)[C@@H](O[C@H]2C[C@@](C)(OC)[C@@H](O)[C@H](C)O2)[C@H](C)[C@@H](O[C@@H]2O[C@H](C)C[C@H](N(C)C)[C@H]2O)[C@](C)(OC)C[C@@H](C)C(=O)[C@H](C)[C@@H](O)[C@]1(C)O [clarithromycin] , state its recorded AUC.
output: 17700

Values from paper PMC3712822
